The following binders are listed with their measured Mean % WT Binding values.
- study system: human CD33 R287A (human, UniProt P20138 18-364)
- Sequence (P20138 18-364 R287A limits assumed): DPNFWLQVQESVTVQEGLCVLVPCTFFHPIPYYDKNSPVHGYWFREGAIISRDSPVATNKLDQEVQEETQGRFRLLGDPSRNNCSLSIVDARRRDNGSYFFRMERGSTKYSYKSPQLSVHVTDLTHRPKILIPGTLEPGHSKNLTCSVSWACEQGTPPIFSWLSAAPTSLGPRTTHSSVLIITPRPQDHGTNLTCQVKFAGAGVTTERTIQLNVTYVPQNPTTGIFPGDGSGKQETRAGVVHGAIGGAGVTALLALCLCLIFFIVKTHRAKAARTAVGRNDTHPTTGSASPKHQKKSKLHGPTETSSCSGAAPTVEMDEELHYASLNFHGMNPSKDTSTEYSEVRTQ
- assay summary: alanine scan, flow cytometry, HEK293-T;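 note: antibody binding to each alanine-substituted CD33 mutant expressed transiently in HEK293-T, read as fluorescence minus background, mean of duplicates, relative to wild-type CD33 set as 100%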

binder	unit name	Mean % WT Binding
Refmab #3 (antibody, V domains shown, The alanine scan used IgG or Fab) VH: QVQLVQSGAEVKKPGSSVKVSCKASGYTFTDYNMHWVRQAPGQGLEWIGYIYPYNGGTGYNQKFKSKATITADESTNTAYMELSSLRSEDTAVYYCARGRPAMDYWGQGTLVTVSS VL: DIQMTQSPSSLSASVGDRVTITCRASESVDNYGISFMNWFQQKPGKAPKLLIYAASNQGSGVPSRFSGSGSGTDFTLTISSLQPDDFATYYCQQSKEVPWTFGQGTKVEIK	% WT binding	112
Refmab #2 (antibody, V domains shown, The alanine scan used IgG or Fab) VH: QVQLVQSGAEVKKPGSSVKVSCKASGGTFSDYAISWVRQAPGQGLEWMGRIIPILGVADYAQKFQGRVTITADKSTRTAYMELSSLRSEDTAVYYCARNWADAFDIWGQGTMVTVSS VL: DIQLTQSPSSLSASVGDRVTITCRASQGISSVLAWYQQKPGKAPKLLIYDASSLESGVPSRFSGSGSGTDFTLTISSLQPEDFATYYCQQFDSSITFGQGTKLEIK	% WT binding	110
Refmab #1 (antibody, V domains shown, The alanine scan used IgG or Fab; also called hP67.6) VH: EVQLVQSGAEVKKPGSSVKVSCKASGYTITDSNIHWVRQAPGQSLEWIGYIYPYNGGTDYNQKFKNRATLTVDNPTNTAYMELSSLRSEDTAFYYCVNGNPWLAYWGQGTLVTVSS VL: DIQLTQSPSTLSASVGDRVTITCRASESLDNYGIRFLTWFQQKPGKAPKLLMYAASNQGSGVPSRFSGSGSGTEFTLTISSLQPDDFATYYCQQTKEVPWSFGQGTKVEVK	% WT binding	94.7
Refmab #4 (antibody, V domains shown, The alanine scan used IgG or Fab) VH: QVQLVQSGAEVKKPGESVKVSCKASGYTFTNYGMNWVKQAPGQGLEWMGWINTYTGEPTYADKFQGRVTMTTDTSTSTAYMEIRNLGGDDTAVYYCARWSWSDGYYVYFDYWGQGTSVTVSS VL: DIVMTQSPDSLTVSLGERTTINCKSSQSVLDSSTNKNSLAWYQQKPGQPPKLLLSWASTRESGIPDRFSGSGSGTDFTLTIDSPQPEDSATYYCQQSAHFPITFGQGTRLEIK	% WT binding	65.3
